Measured Population Apoptotic (%) of individual entries
Test system: HEK-293T
Assay: Multiplex assay against HEK293T
Type: toxicity, cell-based
Conditions: human, 24 h, 10 µM, compound concentration 10 uM, replicate 1
Endpoint: Population Apoptotic (%)

1) CN[C@@H](C)C(=O)N[C@H](C(=O)N1CCC[C@H]1C(=O)Nc1snnc1-c1ccccc1)C1CCCCC1 45
2) COc1ccccc1N1CCN(C[C@@H](C(=O)NC(C)(C)C)c2ccccc2)CC1.Cl.Cl 45
3) CCc1cc2cc(NS(=O)(=O)c3ccc(C#N)cc3)ccc2n(CC)c1=O 33
4) COc1cccc2c1c(NS(=O)(=O)c1ccc(Cl)s1)nn2Cc1cccc(CNC(=O)C(C)(C)O)c1 40
5) Cc1cnc(-c2cc(N3CCN(C(=O)CCS(C)(=O)=O)CC3)ncc2Cl)c(C)c1 33

FYI, the data here is from ChEMBL document CHEMBL5058577.
